Target sequence: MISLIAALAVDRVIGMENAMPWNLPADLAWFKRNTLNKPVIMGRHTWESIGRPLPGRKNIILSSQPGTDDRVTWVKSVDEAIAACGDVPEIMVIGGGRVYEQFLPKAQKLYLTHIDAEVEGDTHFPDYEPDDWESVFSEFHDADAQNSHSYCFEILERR
observed property: pIC50
Give only the number. pIC50 is defined as minus log10 of concentration in molar units.

Known results for compounds:
{"columns": ["compound", "observed property", "reading"],
 "data": [
  ["CC(Cc1coc2nc(N)nc(N)c12)c1ccc(C(=O)N[C@@H](CCC(=O)O)C(=O)O)cc1 (stereo partly drawn)", "pIC50", 5.96],
  ["C/C(=C\\c1coc2nc(N)nc(N)c12)c1ccc(C(=O)N[C@@H](CCC(=O)O)C(=O)O)cc1", "pIC50", 4.96]
]}

Moving on to the next compound.
Form: compound = C/C(=C/c1coc2nc(N)nc(N)c12)c1ccc(C(=O)N[C@@H](CCC(=O)O)C(=O)O)cc1.C/C(=C\c1coc2nc(N)nc(N)c12)c1ccc(C(=O)N[C@@H](CCC(=O)O)C(=O)O)cc1 (mixture of isomers) ; pIC50 = 5.96

---

target: Thymidylate synthase (Homo sapiens, UniProt P04818); test: Inhibitory concentration against recombinant human (rh) Thymidylate synthase (TS)
Sequence (P04818 whole entry): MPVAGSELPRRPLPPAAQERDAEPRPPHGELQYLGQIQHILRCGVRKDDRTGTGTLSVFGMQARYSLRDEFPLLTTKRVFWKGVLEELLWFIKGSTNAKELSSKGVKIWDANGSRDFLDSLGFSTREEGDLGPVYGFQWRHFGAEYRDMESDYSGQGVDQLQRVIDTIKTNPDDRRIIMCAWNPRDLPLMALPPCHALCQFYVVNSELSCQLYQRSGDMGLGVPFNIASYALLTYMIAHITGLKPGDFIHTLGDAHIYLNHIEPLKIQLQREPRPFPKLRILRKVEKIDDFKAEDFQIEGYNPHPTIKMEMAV
// IC50 lookup, one value per entry

Known results for compounds:
{"columns": ["compound", "IC50"],
 "data": [
  ["C/C(=C/c1coc2nc(N)nc(N)c12)c1ccc(C(=O)N[C@@H](CCC(=O)O)C(=O)O)cc1.C/C(=C\\c1coc2nc(N)nc(N)c12)c1ccc(C(=O)N[C@@H](CCC(=O)O)C(=O)O)cc1 (mixture of isomers)", "> 360 µM"],
  ["Nc1nc(N)c2c(CNc3ccc(C(=O)N[C@@H](CCC(=O)O)C(=O)O)cc3)coc2n1", "> 200 µM"],
  ["C/C(=C\\c1coc2nc(N)nc(N)c12)c1ccc(C(=O)N[C@@H](CCC(=O)O)C(=O)O)cc1", "> 360 µM"],
  ["CC(Cc1coc2nc(N)nc(N)c12)c1ccc(C(=O)N[C@@H](CCC(=O)O)C(=O)O)cc1 (stereo not given in full)", "> 360 µM"]
]}

Form: compound = CN(Cc1coc2nc(N)nc(N)c12)c1ccc(C(=O)N[C@@H](CCC(=O)O)C(=O)O)cc1 [FURO[2,3D]PYRIMIDINE ANTIFOLATE] ; IC50 = > 200 µM

---

The following are reported pIC50 results, target or system Dihydrofolate reductase (Lactobacillus casei, UniProt P00381).
Give only the number. pIC50 is defined as minus log10 of concentration in molar units.

{"columns": ["compound", "study system", "pIC50"],
 "data": [
  ["CC(Cc1coc2nc(N)nc(N)c12)c1ccc(C(=O)N[C@@H](CCC(=O)O)C(=O)O)cc1 (some centres undefined)", "Dihydrofolate reductase (Lactobacillus casei, UniProt P00381)", 5.68],
  ["C/C(=C\\c1coc2nc(N)nc(N)c12)c1ccc(C(=O)N[C@@H](CCC(=O)O)C(=O)O)cc1", "Dihydrofolate reductase (Lactobacillus casei, UniProt P00381)", 4.08],
  ["CN(Cc1coc2nc(N)nc(N)c12)c1ccc(C(=O)N[C@@H](CCC(=O)O)C(=O)O)cc1 [FURO[2,3D]PYRIMIDINE ANTIFOLATE]", "Dihydrofolate reductase (Lactobacillus casei, UniProt P00381)", 6.66]
]}

Moving on to the next compound.
Log: Dihydrofolate reductase (Lactobacillus casei, UniProt P00381), compound C/C(=C/c1coc2nc(N)nc(N)c12)c1ccc(C(=O)N[C@@H](CCC(=O)O)C(=O)O)cc1.C/C(=C\c1coc2nc(N)nc(N)c12)c1ccc(C(=O)N[C@@H](CCC(=O)O)C(=O)O)cc1 (mixture of isomers) , pIC50 = 5.36
